Reference source for all entries: ChEMBL document CHEMBL2046406

Here's a batch of compounds along with measured log10(Ki) for Kappa-type opioid receptor (Homo sapiens, UniProt P41145).
measurement kind: log10(Ki) (log10 of the value in nM)

> print(dat)
                            chemical.smiles  data.value
1  Oc1ccc(CNc2ccc3c(c2)[C@@]24CCCC[C@H]2[C@@H](C3)N(CC2CC2)CC4)cc1       -0.57
2  Oc1ccc(CNc2ccc3c(c2)[C@@]24CCCC[C@H]2[C@@H](C3)N(CC2CCC2)CC4)cc1        0.36
3  CN1CC[C@]23c4c5ccc(NCc6cccc(O)c6)c4O[C@H]2[C@@H](O)C=C[C@H]3[C@H]1C5        2.96
4  O=[N+]([O-])c1cccc(CNc2ccc3c(c2)[C@@]24CCCC[C@H]2[C@@H](C3)N(CC2CCC2)CC4)c1        0.04
5  CN1CC[C@]23CCCC[C@H]2[C@H]1Cc1ccc(N)cc13        2.04
6  c1cc2c(cc1CNc1ccc3c(c1)[C@@]14CCCC[C@H]1[C@@H](C3)N(CC1CC1)CC4)OCO2       -0.28
7  Oc1ccccc1CNc1ccc2c(c1)[C@@]13CCCC[C@H]1[C@@H](C2)N(CC1CC1)CC3       -0.59
8  COc1ccccc1CN(C)c1ccc2c(c1)[C@@]13CCCC[C@H]1[C@@H](C2)N(CC1CCC1)CC3        1.28

----------
Biological target: Delta-type opioid receptor (Homo sapiens)
Sequence (P41143 whole entry): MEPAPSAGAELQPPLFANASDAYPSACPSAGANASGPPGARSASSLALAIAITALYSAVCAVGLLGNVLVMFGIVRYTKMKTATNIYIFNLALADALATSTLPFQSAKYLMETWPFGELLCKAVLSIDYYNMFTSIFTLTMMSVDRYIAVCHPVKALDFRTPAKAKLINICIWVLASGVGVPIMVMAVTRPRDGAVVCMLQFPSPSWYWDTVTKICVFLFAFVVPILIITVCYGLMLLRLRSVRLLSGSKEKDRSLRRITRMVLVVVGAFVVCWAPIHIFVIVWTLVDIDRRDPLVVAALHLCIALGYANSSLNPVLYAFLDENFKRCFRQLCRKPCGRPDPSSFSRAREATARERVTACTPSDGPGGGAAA
Test: Displacement of [3H]-naltrindole from human delta opioid receptor expressed in CHO cells after 3 hrs by scintillation counting
measurement kind: Ki (nM)

> print(dat)
                             chemical.smiles  data.value
 1  CN1CC[C@]23CCCC[C@H]2[C@H]1Cc1ccc(NCc2cccc(O)c2)cc13         720
 2  COc1cccc(CN(C)c2ccc3c(c2)[C@@]24CCCC[C@H]2[C@@H](C3)N(CC2CCC2)CC4)c1         350
 3  COc1cccc(CNc2ccc3c(c2)[C@@]24CCCC[C@H]2[C@@H](C3)N(CC2CC2)CC4)c1         110
 4  Oc1cccc(CNc2ccc3c(c2)[C@@]24CCCC[C@H]2[C@@H](C3)N(CC2CC2)CC4)c1          41
 5  c1cc2c(cc1CNc1ccc3c(c1)[C@@]14CCCC[C@H]1[C@@H](C3)N(CC1CCC1)CC4)OCO2          53
 6  COc1ccccc1CNc1ccc2c(c1)[C@@]13CCCC[C@H]1[C@@H](C2)N(CC1CCC1)CC3          61
 7  COc1ccccc1CN(C)c1ccc2c(c1)[C@@]13CCCC[C@H]1[C@@H](C2)N(CC1CCC1)CC3         190
 8  c1cc2c(cc1CNc1ccc3c(c1)[C@@]14CCCC[C@H]1[C@@H](C3)N(CC1CC1)CC4)OCO2          20
 9  Oc1ccccc1CNc1ccc2c(c1)[C@@]13CCCC[C@H]1[C@@H](C2)N(CC1CC1)CC3          30
10  CN(Cc1ccc(O)cc1)c1ccc2c(c1)[C@@]13CCCC[C@H]1[C@@H](C2)N(CC1CCC1)CC3         530
11  CN(Cc1ccc(Cl)cc1)c1ccc2c(c1)[C@@]13CCCC[C@H]1[C@@H](C2)N(CC1CCC1)CC3         730
12  COc1ccccc1CNc1ccc2c(c1)[C@@]13CCCC[C@H]1[C@@H](C2)N(CC1CC1)CC3         160
13  Clc1ccc(CNc2ccc3c(c2)[C@@]24CCCC[C@H]2[C@@H](C3)N(CC2CCC2)CC4)cc1         100
14  Oc1cccc(CNc2ccc3c(c2)[C@@]24CCCC[C@H]2[C@@H](C3)N(CC2CCC2)CC4)c1         230
15  Oc1ccccc1CNc1ccc2c(c1)[C@@]13CCCC[C@H]1[C@@H](C2)N(CC1CCC1)CC3         110
16  COc1ccc(CN(C)c2ccc3c(c2)[C@@]24CCCC[C@H]2[C@@H](C3)N(CC2CCC2)CC4)cc1         290
17  CN(Cc1cccc(O)c1)c1ccc2c(c1)[C@@]13CCCC[C@H]1[C@@H](C2)N(CC1CCC1)CC3         170
18  COc1cccc(CNc2ccc3c(c2)[C@@]24CCCC[C@H]2[C@@H](C3)N(CC2CCC2)CC4)c1         150
19  Oc1ccc(CNc2ccc3c(c2)[C@@]24CCCC[C@H]2[C@@H](C3)N(CC2CCC2)CC4)cc1         120
20  O=[N+]([O-])c1cccc(CNc2ccc3c(c2)[C@@]24CCCC[C@H]2[C@@H](C3)N(CC2CCC2)CC4)c1         150
21  COc1ccc(CNc2ccc3c(c2)[C@@]24CCCC[C@H]2[C@@H](C3)N(CC2CCC2)CC4)cc1         260
22  Oc1ccc(CNc2ccc3c(c2)[C@@]24CCCC[C@H]2[C@@H](C3)N(CC2CC2)CC4)cc1          13

----------
Species: Homo sapiens
Test: Selectivity index, ratio of inhibition of human delta opioid receptor to inhibition of human mu opioid receptor
measurement kind: Selectivity ratio

> print(dat)
                             chemical.smiles   measurement.kind  comparison.operator  data.value
 1  COc1ccc(CNc2ccc3c(c2)[C@@]24CCCC[C@H]2[C@@H](C3)N(CC2CC2)CC4)cc1  Selectivity ratio                    =           2
 2  c1ccc(CNc2ccc3c(c2)[C@@]24CCCC[C@H]2[C@@H](C3)N(CC2CCC2)CC4)cc1  Selectivity ratio                    =           2
 3  c1cc2c(cc1CNc1ccc3c(c1)[C@@]14CCCC[C@H]1[C@@H](C3)N(CC1CC1)CC4)OCO2  Selectivity ratio                    =           3
 4  Oc1cccc(CNc2ccc3c(c2)[C@@]24CCCC[C@H]2[C@@H](C3)N(CC2CCC2)CC4)c1  Selectivity ratio                    =           6
 5  COc1cccc(CNc2ccc3c(c2)[C@@]24CCCC[C@H]2[C@@H](C3)N(CC2CCC2)CC4)c1  Selectivity ratio                    =           5
 6  CN1CC[C@]23c4c5ccc(NCc6ccc(O)cc6)c4O[C@H]2[C@@H](O)C=C[C@H]3[C@H]1C5  Selectivity ratio                    =          13
 7  COc1ccc(CNc2ccc3c(c2)[C@@]24CCCC[C@H]2[C@@H](C3)N(CC2CCC2)CC4)cc1  Selectivity ratio                    =           5
 8  Oc1ccc(CNc2ccc3c(c2)[C@@]24CCCC[C@H]2[C@@H](C3)N(CC2CCC2)CC4)cc1  Selectivity ratio                    =           7
 9  Clc1ccc(CNc2ccc3c(c2)[C@@]24CCCC[C@H]2[C@@H](C3)N(CC2CCC2)CC4)cc1  Selectivity ratio                    =           3
10  c1cc2c(cc1CNc1ccc3c(c1)[C@@]14CCCC[C@H]1[C@@H](C3)N(CC1CCC1)CC4)OCO2  Selectivity ratio                    =           3
11  Oc1cccc(CNc2ccc3c(c2)[C@@]24CCCC[C@H]2[C@@H](C3)N(CC2CC2)CC4)c1  Selectivity ratio                    =           2
12  COc1cccc(CN(C)c2ccc3c(c2)[C@@]24CCCC[C@H]2[C@@H](C3)N(CC2CCC2)CC4)c1  Selectivity ratio                    =           2
13  O=[N+]([O-])c1cccc(CNc2ccc3c(c2)[C@@]24CCCC[C@H]2[C@@H](C3)N(CC2CCC2)CC4)c1  Selectivity ratio                    =           3
14  CN1CC[C@]23CCCC[C@H]2[C@H]1Cc1ccc(N)cc13  Selectivity ratio                    =          14
15  COc1ccc(CNc2ccc3c4c2O[C@H]2[C@@H](O)C=C[C@H]5[C@@H](C3)N(C)CC[C@@]452)cc1  Selectivity ratio                    >         160
16  COc1cccc(CNc2ccc3c(c2)[C@@]24CCCC[C@H]2[C@@H](C3)N(CC2CC2)CC4)c1  Selectivity ratio                    =           3
